- test details: Antiproliferative activity against human fibroblasts after 48 hrs by resazurin reduction test
- Assay type: cell-based
- test conditions: Fibroblast
Attribute: IC50

{"sample smiles": "CC(=O)OC[C@H]1O[C@@H](NC(=O)Cn2cc(F)c(=O)[nH]c2=O)[C@H](F)[C@@H](OC(C)=O)[C@@H]1OC(C)=O", "IC50": "> 50 µM"}
{"sample smiles": "CC(=O)OC[C@H]1O[C@@H](n2cc(F)c(=O)[nH]c2=O)[C@H](F)[C@@H](OC(C)=O)[C@@H]1OC(C)=O", "IC50": "> 50 µM"}
{"sample smiles": "CC(=O)OC[C@H]1O[C@@H](NC(=O)CCCN(C)C(=O)n2cc(F)c(=O)[nH]c2=O)[C@H](F)[C@@H](OC(C)=O)[C@@H]1OC(C)=O", "IC50": "> 50 µM"}

// switching to the query molecule
Requested read-out: IC50. Entry: CC(=O)OC[C@H]1O[C@@H](Oc2ccc(N(C)C(=O)n3cc(F)c(=O)[nH]c3=O)cc2)[C@H](F)[C@@H](OC(C)=O)[C@@H]1OC(C)=O
> 50 µM
